Assay: Pharmacokinetics following a single rectal administration to NZW rabbits (Example 11)
Format: in vivo, New Zealand White KBL Rabbit
Settings: male, New Zealand White KBL, rabbit, plasma, other: rectal, 7.5 mg, Niclosamide Plasma Concentrations, Mean, 8 h, Treatment B 7.5, NZW rabbits
parameter: concentration at 8 h (ng/mL)
Unit ng/mL implied. Number only.

Recorded concentration at 8 h for O=C(Nc1ccc([N+](=O)[O-])cc1Cl)c1cc(Cl)ccc1O [Niclosamide] , please? 4.68

----------
Assay: Pharmacokinetics following a single rectal administration to NZW rabbits (Example 11)
Format: in vivo, New Zealand White KBL Rabbit
Conditions: male, New Zealand White KBL, rabbit, plasma, other: rectal, 7.5 mg, Niclosamide Plasma Concentrations, Mean, 24 h, Treatment B 7.5, NZW rabbits
parameter: concentration at 24 h (ng/mL)
Please reply with the bare figure in ng/mL and do not write the unit itself.

State the recorded concentration at 24 h for this entry: O=C(Nc1ccc([N+](=O)[O-])cc1Cl)c1cc(Cl)ccc1O [Niclosamide] 1.07

----------
Assay: Pharmacokinetics following a single rectal administration to NZW rabbits (Example 11)
Type: in vivo, New Zealand White KBL Rabbit
Details: male, New Zealand White KBL, rabbit, plasma, other: rectal, 7.5 mg, Niclosamide Plasma Concentrations, Mean, 2 h, Treatment B 7.5, NZW rabbits
parameter: concentration at 2 h (ng/mL)
Value expressed in ng/mL; do not type the unit.

Requested field: concentration at 2 h. Item: O=C(Nc1ccc([N+](=O)[O-])cc1Cl)c1cc(Cl)ccc1O [Niclosamide] 19.7

----------
Assay: Pharmacokinetics following a single rectal administration to NZW rabbits (Example 11)
Format: in vivo, New Zealand White KBL Rabbit
Settings: male, New Zealand White KBL, rabbit, plasma, other: rectal, 7.5 mg, Niclosamide Plasma Concentrations, Subject 667, 24 h, Treatment B 7.5, NZW rabbits
parameter: concentration at 24 h
Please report the result as a number followed by the unit.

Fill in: concentration at 24 h of O=C(Nc1ccc([N+](=O)[O-])cc1Cl)c1cc(Cl)ccc1O [Niclosamide] is ___ 1.07 ng/mL

----------
Test: Pharmacokinetics following a single rectal administration to NZW rabbits (Example 11)
Assay type: in vivo, New Zealand White KBL Rabbit
Conditions: male, New Zealand White KBL, rabbit, plasma, other: rectal, 7.5 mg, Niclosamide Plasma Concentrations, Subject 668, 2 h, Treatment B 7.5, NZW rabbits
parameter: concentration at 2 h
Give the value; after it, write the unit.

Name the reported concentration at 2 h value associated with the compound O=C(Nc1ccc([N+](=O)[O-])cc1Cl)c1cc(Cl)ccc1O [Niclosamide] 50.7 ng/mL
